Origin of the recorded values: patent US20170081357A1

Listed compounds paired with reported inhibition at 1 µM
MEASUREMENT_TARGET: recombinant human 17β-HSD1 (Homo sapiens)
Construct: made in house; host or cells: Sd9 (Sf9) insect cells, baculovirus (Bac to Bac Expression System); microsomal fraction
Sequence (P14061 whole entry): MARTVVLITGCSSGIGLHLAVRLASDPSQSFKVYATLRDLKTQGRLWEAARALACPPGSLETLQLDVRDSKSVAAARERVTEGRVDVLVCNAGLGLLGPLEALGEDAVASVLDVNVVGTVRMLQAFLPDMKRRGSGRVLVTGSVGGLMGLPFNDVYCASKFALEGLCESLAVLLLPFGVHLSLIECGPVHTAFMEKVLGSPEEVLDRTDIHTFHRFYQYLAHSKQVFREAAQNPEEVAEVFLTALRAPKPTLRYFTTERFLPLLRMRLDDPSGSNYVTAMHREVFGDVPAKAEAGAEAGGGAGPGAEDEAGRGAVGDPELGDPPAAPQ
ASSAY_PROTOCOL: Inhibition of recombinant human 17β-HSD1 (conversion of 3H-estrone to estradiol, HPLC)
Type: biochemical
MEASUREMENT_CONTEXT: inhibitor 1 μM; 30 nM estrone, 1 mM NADPH, 30 min at RT; read-out: 17β-HDS1 Inhibition % at 1 μM
MEASUREMENT_KIND: inhibition at 1 µM (%)

[[record]]
compound = "Cc1cnc(NC(=O)CC[C@@H]2c3c[nH]nc3[C@@]3(C)CCC4c5ccc(O)c([N+](=O)[O-])c5CCC4C23)s1 (stereo partly shown)"
measurement_kind = "inhibition at 1 µM"
readout_value = 97

[[record]]
compound = "Cc1cnc(NC(=O)CC[C@@H]2C/C(=N\\NC(N)=O)[C@@]3(C)CCC4c5cc(Br)c(O)c(Br)c5CCC4C23)s1 (stereo partly shown)"
measurement_kind = "inhibition at 1 µM"
readout_value = 58

[[record]]
compound = "Cc1cnc(NC(=O)CC[C@@H]2C/C(=N\\OCC(=O)O)[C@@]3(C)CCC4c5cc([N+](=O)[O-])c(O)cc5CCC4C23)s1 (stereo partly shown)"
measurement_kind = "inhibition at 1 µM"
readout_value = 55

[[record]]
compound = "Cc1cnc(NC(=O)CC[C@@H]2c3c[nH]nc3[C@@]3(C)CCC4c5cc(Br)c(O)c(Br)c5CCC4C23)s1 (stereo partly shown)"
measurement_kind = "inhibition at 1 µM"
readout_value = 90

[[record]]
compound = "Cc1cnc(NC(=O)CC[C@@H]2c3c[nH]nc3[C@@]3(C)CCC4c5ccc(O)cc5CCC4C23)s1 (stereo partly shown)"
measurement_kind = "inhibition at 1 µM"
readout_value = 82

[[record]]
compound = "CO/N=C1\\C[C@@H](CCC(=O)Nc2ncc(C)s2)C2C3CCc4cc(OC(C)=O)ccc4C3CC[C@]12C (stereo partly shown)"
measurement_kind = "inhibition at 1 µM"
readout_value = 84

[[record]]
compound = "Cc1cnc(NC(=O)CC[C@@H]2C(=C\\O)/C(=N\\O)[C@@]3(C)CCC4c5ccc(O)c(Br)c5CCC4C23)s1 (stereo partly shown)"
measurement_kind = "inhibition at 1 µM"
readout_value = 82

